assay.overview: Cellular toxicity assay in Vero cells
Assay type: cell-based
condition.context: African green monkey, read-out: Cytotoxicity (IC50 μM) Vero
experimental.endpoint: IC50

As a guide, the following entries are already answered.
>>> value_measured("COC(=O)N[C@H](C(=O)N1CCCC1c1ncc(-c2ccc(-c3ccc(-c4[nH]c([C@@H]5C[C@H](SC)CN5C(=O)[C@@H](NC(=O)OC)C(C)C)nc4Cl)cc3)cc2)[nH]1)C(C)C (stereo partly drawn)")
"14.4 µM"
>>> value_measured("COC(=O)N[C@H](C(=O)N1CCCC1c1ncc(-c2ccc(-c3ccc(-c4[nH]c([C@@H]5C[C@H](SC)CN5C(=O)[C@@H](NC(=O)OC)c5ccccc5)nc4Cl)cc3)cc2)[nH]1)c1ccccc1 (stereo partly drawn)")
"> 100 µM"
>>> value_measured("COC(=O)N[C@H](C(=O)N1CCCC1c1nc(Cl)c(-c2ccc(-c3ccc(-c4cnc([C@@H]5C[C@H]([S+](C)[O-])CN5C(=O)[C@@H](NC(=O)OC)c5ccccc5)[nH]4)cc3)cc2)[nH]1)c1ccccc1 (stereo partly drawn)")
"> 100 µM"
>>> value_measured("COC(=O)N[C@H](C(=O)N1CCCC1c1nc(Cl)c(-c2ccc(-c3ccc(-c4cnc([C@@H]5C[C@H](SC)CN5C(=O)[C@@H](NC(=O)OC)C(C)C)[nH]4)cc3)cc2)[nH]1)C(C)C (stereo partly drawn)")
"34.5 µM"

Lab book: IC50 of COC(=O)N[C@H](C(=O)N1CCCC1c1nc(Cl)c(-c2ccc(-c3ccc(-c4[nH]c([C@@H]5C[C@H](SC)CN5C(=O)[C@@H](NC(=O)OC)c5ccccc5)nc4Cl)cc3)cc2)[nH]1)c1ccccc1 (stereo partly drawn) noted as > 100 µM

GET /value?item= COC(=O)N[C@H](C(=O)N1CCCC1c1nc(Cl)c(-c2ccc(-c3ccc(-c4[nH]c([C@@H]5C[C@H]([S+](C)[O-])CN5C(=O)[C@@H](NC(=O)OC)c5ccccc5)nc4Cl)cc3)cc2)[nH]1)c1ccccc1 (stereo partly drawn) &field=IC50 returns > 100 µM

Field IC50 (entry COC(=O)N[C@H](C(=O)N1CCCC1c1ncc(-c2ccc(-c3ccc(-c4[nH]c([C@@H]5C[C@H]([S+](C)[O-])CN5C(=O)[C@@H](NC(=O)OC)c5ccccc5)nc4Cl)cc3)cc2)[nH]1)c1ccccc1 (stereo partly drawn) ) reads > 100 µM

response.value for COC(=O)N[C@H](C(=O)N1CCCC1c1nc(Cl)c(-c2ccc(-c3ccc(-c4[nH]c([C@@H]5C[C@H](SC)CN5C(=O)[C@@H](NC(=O)OC)C(C)C)nc4Cl)cc3)cc2)[nH]1)C(C)C (stereo partly drawn) (field: IC50) = > 100 µM

IC50 reported for this molecule COC(=O)N[C@H](C(=O)N1CCCC1c1ncc(-c2ccc(-c3ccc(-c4[nH]c([C@@H]5C[C@H]([S+](C)[O-])CN5C(=O)[C@@H](NC(=O)OC)C(C)C)nc4Cl)cc3)cc2)[nH]1)C(C)C (stereo partly drawn) : 45.8 µM

---

Overview of reported EC90 across a group of compounds:
Test system: HCV Replicon RNA (HCV 1b) in Huh 7 Clone B cells
assay.overview: HCV Replicon Assay
Format: cell-based
condition.context: Hepatitis C virus, 120 h, five days incubation, pM
Your answer is read as pM, so omit the unit and give the number.

# annotated cases, reported EC90 shown
>>> value_measured("COC(=O)N[C@H](C(=O)N1CCCC1c1ncc(-c2ccc(-c3ccc(-c4[nH]c([C@@H]5C[C@H](SC)CN5C(=O)[C@@H](NC(=O)OC)c5ccccc5)nc4Cl)cc3)cc2)[nH]1)c1ccccc1 (some centres unmarked) [Compound 47]")
23.1
>>> value_measured("COC(=O)N[C@H](C(=O)N1CCCC1c1nc(Cl)c(-c2ccc(-c3ccc(-c4[nH]c([C@@H]5C[C@H](SC)CN5C(=O)[C@@H](NC(=O)OC)c5ccccc5)nc4Cl)cc3)cc2)[nH]1)c1ccccc1 (some centres unmarked) [Compound 51]")
19.1
>>> value_measured("COC(=O)N[C@H](C(=O)N1CCCC1c1nc(Cl)c(-c2ccc(-c3ccc(-c4cnc([C@@H]5C[C@H](SC)CN5C(=O)[C@@H](NC(=O)OC)C(C)C)[nH]4)cc3)cc2)[nH]1)C(C)C (some centres unmarked) [Compound 42]")
26.3
>>> value_measured("COC(=O)N[C@H](C(=O)N1CCCC1c1nc(Cl)c(-c2ccc(-c3ccc(-c4[nH]c([C@@H]5C[C@H](SC)CN5C(=O)[C@@H](NC(=O)OC)C(C)C)nc4Cl)cc3)cc2)[nH]1)C(C)C (some centres unmarked) [Compound 49]")
69.9

Next compound, EC90 to be filled in.
Bench note, HCV Replicon RNA (HCV 1b) in Huh 7 Clone B cells: entry COC(=O)N[C@H](C(=O)N1CCCC1c1ncc(-c2ccc(-c3ccc(-c4[nH]c([C@@H]5C[C@H](SC)CN5C(=O)[C@@H](NC(=O)OC)C(C)C)nc4Cl)cc3)cc2)[nH]1)C(C)C (some centres unmarked) [Compound 45] , its EC90 = 31.6

---

assay.overview: Cellular toxicity assay in human PBM cells
Format: cell-based
condition.context: read-out: Cytotoxicity (IC50 μM) PBM
experimental.endpoint: IC50 (µM)
# unit: µM | format: bare number

>>> value_measured("COC(=O)N[C@H](C(=O)N1CCCC1c1nc(Cl)c(-c2ccc(-c3ccc(-c4[nH]c([C@@H]5C[C@H]([S+](C)[O-])CN5C(=O)[C@@H](NC(=O)OC)c5ccccc5)nc4Cl)cc3)cc2)[nH]1)c1ccccc1 (stereo partly shown) [Compound 52]")
83.9
>>> value_measured("COC(=O)N[C@H](C(=O)N1CCCC1c1ncc(-c2ccc(-c3ccc(-c4[nH]c([C@@H]5C[C@H]([S+](C)[O-])CN5C(=O)[C@@H](NC(=O)OC)C(C)C)nc4Cl)cc3)cc2)[nH]1)C(C)C (stereo partly shown) [Compound 46]")
13.6

Proceed to the following item.
Reported IC50 for COC(=O)N[C@H](C(=O)N1CCCC1c1ncc(-c2ccc(-c3ccc(-c4[nH]c([C@@H]5C[C@H]([S+](C)[O-])CN5C(=O)[C@@H](NC(=O)OC)c5ccccc5)nc4Cl)cc3)cc2)[nH]1)c1ccccc1 (stereo partly shown) [Compound 48] was 67.6

---

assay.overview: Cellular toxicity assay in CEM cells
Type: cell-based
condition.context: human, CEM (human lymphoblastoid) cells, read-out: Cytotoxicity (IC50 μM) CEM
The following compounds are listed with their measured IC50 values.

Consider the worked cases shown below.
>>> value_measured("COC(=O)N[C@H](C(=O)N1CCCC1c1ncc(-c2ccc(-c3ccc(-c4[nH]c([C@@H]5C[C@H](SC)CN5C(=O)[C@@H](NC(=O)OC)c5ccccc5)nc4Cl)cc3)cc2)[nH]1)c1ccccc1 (stereo partly drawn)")
"> 100 µM"
>>> value_measured("COC(=O)N[C@H](C(=O)N1CCCC1c1nc(Cl)c(-c2ccc(-c3ccc(-c4[nH]c([C@@H]5C[C@H](SC)CN5C(=O)[C@@H](NC(=O)OC)c5ccccc5)nc4Cl)cc3)cc2)[nH]1)c1ccccc1 (stereo partly drawn)")
"> 100 µM"
>>> value_measured("COC(=O)N[C@H](C(=O)N1CCCC1c1nc(Cl)c(-c2ccc(-c3ccc(-c4cnc([C@@H]5C[C@H]([S+](C)[O-])CN5C(=O)[C@@H](NC(=O)OC)c5ccccc5)[nH]4)cc3)cc2)[nH]1)c1ccccc1 (stereo partly drawn)")
"3.6 µM"
>>> value_measured("COC(=O)N[C@H](C(=O)N1CCCC1c1ncc(-c2ccc(-c3ccc(-c4[nH]c([C@@H]5C[C@H]([S+](C)[O-])CN5C(=O)[C@@H](NC(=O)OC)C(C)C)nc4Cl)cc3)cc2)[nH]1)C(C)C (stereo partly drawn)")
"3.7 µM"
>>> value_measured("COC(=O)N[C@H](C(=O)N1CCCC1c1nc(Cl)c(-c2ccc(-c3ccc(-c4[nH]c([C@@H]5C[C@H](SC)CN5C(=O)[C@@H](NC(=O)OC)C(C)C)nc4Cl)cc3)cc2)[nH]1)C(C)C (stereo partly drawn)")
"2.5 µM"

Per the records, this compound ( COC(=O)N[C@H](C(=O)N1CCCC1c1ncc(-c2ccc(-c3ccc(-c4[nH]c([C@@H]5C[C@H]([S+](C)[O-])CN5C(=O)[C@@H](NC(=O)OC)c5ccccc5)nc4Cl)cc3)cc2)[nH]1)c1ccccc1 (stereo partly drawn) ) has IC50 equal to 1.8 µM

Entry under test: COC(=O)N[C@H](C(=O)N1CCCC1c1nc(Cl)c(-c2ccc(-c3ccc(-c4[nH]c([C@@H]5C[C@H]([S+](C)[O-])CN5C(=O)[C@@H](NC(=O)OC)c5ccccc5)nc4Cl)cc3)cc2)[nH]1)c1ccccc1 (stereo partly drawn) . Its IC50 was 7.1 µM

Entry COC(=O)N[C@H](C(=O)N1CCCC1c1ncc(-c2ccc(-c3ccc(-c4[nH]c([C@@H]5C[C@H](SC)CN5C(=O)[C@@H](NC(=O)OC)C(C)C)nc4Cl)cc3)cc2)[nH]1)C(C)C (stereo partly drawn) — recorded IC50 = 5.2 µM

IC50 in this record for COC(=O)N[C@H](C(=O)N1CCCC1c1nc(Cl)c(-c2ccc(-c3ccc(-c4cnc([C@@H]5C[C@H](SC)CN5C(=O)[C@@H](NC(=O)OC)C(C)C)[nH]4)cc3)cc2)[nH]1)C(C)C (stereo partly drawn) : 3.1 µM

Where do these numbers come from? They come from patent US9926295B2.
